For each entry below, report its SPOT intensity value.
# target-under-test: T1, Sla1-2, P32790
# T1 sequence (P32790 60-140, looked up): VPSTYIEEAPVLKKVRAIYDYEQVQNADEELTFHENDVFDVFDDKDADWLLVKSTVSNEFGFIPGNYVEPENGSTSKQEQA
# procedure-summary: SPOT array
# reported-conditions: median of control spots 712
Just the number, please, no unit attached.

// KIRRSSLMIPNPQQF : SPOT intensity value = 4

binder HGKRRAPLLLAKLDV , SPOT intensity observed: 0

Field SPOT intensity (entry YHSRRHPLALGFKYV ) reads 0

The reported SPOT intensity of the binder PIVPSSPAPPLPLSG was 0
